tested on: Trypanosoma cruzi; test: Trypanosoma cruzi phosphomannomutase and mannose-1-phosphate guanylyltransferase assay; type: functional; design: scale not given: direction of the effect not stated beside the values; details: 10 µM
I'd be grateful if you could share measured Percent Effect for these entries.
Answers are plain numbers, in %.

Record excerpt, results attached:
compound	Percent Effect [%]
CCc1nccn1C1CCCN(C(=O)c2cc3nc(C)ccc3o2)C1 (centres undefined)	-6.7
CC(C)N(C)Cc1nnc2n1CCN(Cc1ccncc1)CC2	-3.67
Cn1cc(CCC(=O)N2CCN(Cc3ccncc3)CC2)cn1	-4.87
Cc1cc2cc(C(=O)N[C@@H]3CC[C@@H](N4CCOCC4)[C@@H]3O)ccc2o1	2.57

Please give Percent Effect for each item listed below.
1. COc1ccc(OCc2nc(C(=O)N3CC(O)C3)co2)cc1
2. CN(CCc1cccs1)C1CCCN(Cc2noc(C3CC3)n2)C1 (centres undefined)
3. Cc1cc(CN2CCC(c3ccnn3CCO)CC2)no1
4. COc1cccc(CN(C)C(=O)CN2CCN(CCO)CC2)c1

OUTPUT:
[1.74, 2.82, 6.7, 0.292]

Please give Percent Effect for each item listed below.
1. COCC(c1cccc(C(F)(F)F)c1)N(C)C(=O)c1ccncc1 (centres undefined)
2. Cn1c(NCC(O)c2ccc(F)cc2F)c(C#N)c(=O)n(C)c1=O (centres undefined)

OUTPUT:
[8.46, 1.6]

---

I'd be grateful if you could share measured Percent Effect for these entries.
biological target: Proteasome subunit beta (Trypanosoma cruzi); assay: Trypanosoma cruzi proteasome chymotrypsin-like activity (TcProtChymo) assay.; type: functional; parameters: scale not given: in the data most compounds retested in dose-response had high values; details: 9.37 µM
One number for each entry, in %.

Record excerpt, results attached:
compound	Percent Effect / %
COc1nc2c(cc1C(=O)N1C[C@H](N)C[C@H]1C(=O)NC(C)C)CCC2	16.3
Cn1cnc2c1C(COCC1CCOCC1)CN(C1CCOCC1)C2 (stereo not drawn)	6.96
CCS(=O)(=O)Nc1ccc(C(=O)NCCCN2CCCC2)cc1	19.1
c1ccc(CN2CCN(Cc3cscn3)CC2)cc1	7.2
Cc1cccc(Cn2c3c(ccc2=O)CCN(Cc2ccoc2)CC3)n1	10.5

Please give Percent Effect for each item listed below.
1. O=C(NCc1cnc2n1CCN(CC1CC1)CC2)C1CCC1
2. COCCN1CCC(NCc2cccc(F)c2)C1 (stereo not drawn)
3. CCc1nnc2n1CCN(CCS(=O)(=O)c1ccccc1)C2
4. CNc1cncc(C2CCCN2Cc2ccccc2OCC(=O)O)n1 (stereo not drawn)

OUTPUT:
[7.47, 8.78, -2.87, 9.52]

Please give Percent Effect for each item listed below.
1. Cn1cc(CN2CC[C@H]3O[C@H](C(=O)NCc4ccco4)CC[C@H]32)cn1
2. COCC(=O)N1CC[C@H]2C[C@@H](c3nnc(C4CC4)o3)O[C@@H]2C1
3. Fc1ccc(CN2CCC(c3nccnc3-n3ccnc3)CC2)cc1
4. O=C(NCc1cnc2n1CCN(c1ncc(F)cn1)CC2)C1CCC1

OUTPUT:
[6.67, 19.5, 12.5, -0.772]

Please give Percent Effect for each item listed below.
1. CCN(CC)C(C(=O)NCc1ccc(N2CCCC2)nc1)C(C)C (stereo not drawn)
2. CN(Cc1cnn(C)c1)C(=O)c1ccc(=O)n(C)n1
3. COc1ccc2c(c1)CCN(CCC(=O)O)CC2
4. CC(=O)N1CCCC(c2cnc(-c3c(C)nn(C)c3C)cn2)C1 (stereo not drawn)
5. NS(=O)(=O)N1CCc2ccc(NC(=O)Cc3ccc(F)cc3)cc21
6. COc1ccc(CNC2CCN(CCc3ccncc3)CC2)cc1O

OUTPUT:
1: 11.9; 2: 12.9; 3: 13.6; 4: -4.67; 5: 6.92; 6: 10.6

Please give Percent Effect for each item listed below.
1. Cc1ccccc1-c1cncc(C2CCN(C)CC2)n1
2. CC(C)(C)NC(=O)CN1CCN(C(=O)Nc2ccc(F)cc2F)CC1
3. CC(=O)N1CCN(C(=O)c2cnn(-c3ccccc3Cl)c2)CC1
4. O=C(CCc1nccs1)N1CCN(c2cccnn2)CC1

OUTPUT:
-0.624
6.76
9.19
-0.404

---

target: Protein translocase subunit SecA (Escherichia coli (strain K12)) (UniProt P10408); assay: Assay to Identify E. coli SecA ATPase Inhibitors; format: functional; set-up: scale not given: direction of the effect not stated beside the values; settings: 30 µM
Sequence (P10408 whole entry): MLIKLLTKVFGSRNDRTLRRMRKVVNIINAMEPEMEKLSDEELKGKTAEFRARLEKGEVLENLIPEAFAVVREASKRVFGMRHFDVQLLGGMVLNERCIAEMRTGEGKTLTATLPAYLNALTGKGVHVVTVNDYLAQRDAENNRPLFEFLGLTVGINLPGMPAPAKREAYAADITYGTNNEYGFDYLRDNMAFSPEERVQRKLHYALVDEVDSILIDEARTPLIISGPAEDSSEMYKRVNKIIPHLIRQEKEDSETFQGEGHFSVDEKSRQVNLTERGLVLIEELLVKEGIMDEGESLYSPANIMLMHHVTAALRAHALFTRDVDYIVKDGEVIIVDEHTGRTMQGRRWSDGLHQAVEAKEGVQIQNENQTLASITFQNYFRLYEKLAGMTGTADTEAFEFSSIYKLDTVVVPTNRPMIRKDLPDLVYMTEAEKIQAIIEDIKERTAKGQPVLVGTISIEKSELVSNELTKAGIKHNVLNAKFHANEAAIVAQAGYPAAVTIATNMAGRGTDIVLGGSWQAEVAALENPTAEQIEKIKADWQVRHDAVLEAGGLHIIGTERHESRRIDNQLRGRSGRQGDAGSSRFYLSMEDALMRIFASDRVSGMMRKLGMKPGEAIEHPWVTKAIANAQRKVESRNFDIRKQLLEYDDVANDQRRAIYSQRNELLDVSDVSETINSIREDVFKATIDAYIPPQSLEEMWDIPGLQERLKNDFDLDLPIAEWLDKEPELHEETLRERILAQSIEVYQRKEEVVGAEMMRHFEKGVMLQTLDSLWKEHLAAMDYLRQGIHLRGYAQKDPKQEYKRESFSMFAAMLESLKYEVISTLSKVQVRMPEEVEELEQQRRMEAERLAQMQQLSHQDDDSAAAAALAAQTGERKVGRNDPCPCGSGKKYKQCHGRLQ
Entries with a potency or affinity are not part of this list.
assay-metric: Percent Effect (%)
Numbers only, in %.

Record excerpt, results attached:
compound	target-of-assay	assay-metric	unit-annotation	value
Cc1oc(C)c(C(=O)NCc2ccccn2)c1C	Protein translocase subunit SecA (Escherichia coli (strain K12)) (UniProt P10408)	Percent Effect	%	-0.692
Cc1cnn(C2CCCN(C(=O)c3ccn(C)c(=O)c3)C2)c1 (stereo not given)	Protein translocase subunit SecA (Escherichia coli (strain K12)) (UniProt P10408)	Percent Effect	%	-0.722
Cc1nc(CNC(C)c2ccc(OCC(=O)NC3CC3)cc2)cs1 (stereo not given)	Protein translocase subunit SecA (Escherichia coli (strain K12)) (UniProt P10408)	Percent Effect	%	-1.09
O=C([C@H]1CCCO1)N1CCc2ncnc(NC3CC3)c2CC1	Protein translocase subunit SecA (Escherichia coli (strain K12)) (UniProt P10408)	Percent Effect	%	1.86
CC(C)(C)NC(=O)C1CSCN1S(=O)(=O)c1cccc(F)c1 (stereo not given)	Protein translocase subunit SecA (Escherichia coli (strain K12)) (UniProt P10408)	Percent Effect	%	1.74
COc1ccc2cc(C(=O)N3CCCCC3CC(N)=O)[nH]c2c1 (stereo not given)	Protein translocase subunit SecA (Escherichia coli (strain K12)) (UniProt P10408)	Percent Effect	%	-4.78
Cc1cc(C2CCCN2C(=O)NCc2cccc(F)c2)on1 (stereo not given)	Protein translocase subunit SecA (Escherichia coli (strain K12)) (UniProt P10408)	Percent Effect	%	-3.25
c1cnn(CC2CCCN2c2ncnc3sccc23)c1 (stereo not given)	Protein translocase subunit SecA (Escherichia coli (strain K12)) (UniProt P10408)	Percent Effect	%	-5.43

Please give Percent Effect for each item listed below.
1. Cc1ccc(N2CCCC(NCc3nc(C)c(C)o3)C2)nn1 (stereo not given)
2. COCC(=O)N1CCO[C@H]2[C@H](OC)CC[C@@H]21

OUTPUT:
1. -2.18
2. -6.12

Please give Percent Effect for each item listed below.
1. CC(=O)N1CCN(Cc2nnc(C(C)(C)C)o2)CC1
2. CS(=O)(=O)CCC(=O)Nc1cnn(-c2ccccc2Cl)c1
3. CCc1ncncc1C(=O)NCCN1CCC(C)CC1
4. Cc1ccc(CNC(=O)CN2C=Nc3ccccc3S2(=O)=O)s1
5. Cc1ncsc1CN1CC[C@H]2C(=O)N(c3ccccc3)CCO[C@H]2C1
6. CC1COCCN1Cc1nc(-c2cccs2)no1 (stereo not given)
7. CC(C)(C)C(=O)NS(=O)(=O)c1ccc(C#N)cc1C(F)(F)F
8. CCc1cc(NCC(O)CN2CCCCC2)n2ncnc2n1 (stereo not given)

OUTPUT:
[0.446, -5.57, -1.34, -3.17, -1.58, -2.46, -3.4, -4.14]

Please give Percent Effect for each item listed below.
1. CN(Cc1cnn(C)c1)C(=O)NCc1nnc2n1CCC2
2. COCC(=O)N1CC[C@H]2C[C@@H](c3nnc(C4CC4)o3)O[C@@H]2C1
3. Cn1cc(N2CCC3(CCN(S(=O)(=O)C4CC4)C3)C2=O)cn1 (stereo not given)
4. O=C(Nc1nncs1)NC1CCc2ccccc21 (stereo not given)
5. Cc1noc2ncc(C(=O)N3CCCC3c3cnn(C)c3)cc12 (stereo not given)
6. CCn1cc(C(=O)NCc2csc(Br)c2)cn1
7. COc1cc(C)nc(N2CCN(C(=O)c3ccccc3C)CC2)n1

OUTPUT:
-4.33
-5.18
-2.28
0.119
-1.99
-4.42
-6.89

---

target: Arginase-2, mitochondrial (Homo sapiens) (UniProt P78540); assay: in vitro enzyme assay to detect the production of urea directly proportional to the activity of Arginase II; type: functional; design: scale not given: in the data most compounds retested in dose-response had high values; settings: 33.3 µM
Sequence (P78540 whole entry): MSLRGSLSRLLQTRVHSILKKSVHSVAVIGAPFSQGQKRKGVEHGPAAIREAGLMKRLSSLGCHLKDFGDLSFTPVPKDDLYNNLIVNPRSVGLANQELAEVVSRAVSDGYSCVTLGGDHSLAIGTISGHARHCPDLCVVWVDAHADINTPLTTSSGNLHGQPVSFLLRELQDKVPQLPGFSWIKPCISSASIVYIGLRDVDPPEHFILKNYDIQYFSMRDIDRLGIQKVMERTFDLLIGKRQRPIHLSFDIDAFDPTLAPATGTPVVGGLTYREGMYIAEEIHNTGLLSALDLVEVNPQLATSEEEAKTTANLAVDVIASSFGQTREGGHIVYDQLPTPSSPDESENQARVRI
I'd be grateful if you could share measured Percent Effect for these entries.
One number for each entry, in %.

Record excerpt, results attached:
compound	target-of-assay	assay-metric	value
Cc1ccc(CNC(C)c2ccc3[nH]c(=O)[nH]c3c2)s1 (stereo unspecified)	Arginase-2, mitochondrial (Homo sapiens) (UniProt P78540)	Percent Effect	-5.61
O=C(Cn1cnc(NC(=O)CC2CCCC2)n1)NCc1ccccc1	Arginase-2, mitochondrial (Homo sapiens) (UniProt P78540)	Percent Effect	-1.53
COC1CCN(C(=O)Cc2csc(-c3ncccn3)n2)CC1	Arginase-2, mitochondrial (Homo sapiens) (UniProt P78540)	Percent Effect	3.83
COc1cc(CCC(=O)NC2CC2)ccc1OCC(F)(F)F	Arginase-2, mitochondrial (Homo sapiens) (UniProt P78540)	Percent Effect	2.52
COc1ccc(OC)c(NC(=O)NCC(O)c2ccc(F)c(F)c2)c1 (stereo unspecified)	Arginase-2, mitochondrial (Homo sapiens) (UniProt P78540)	Percent Effect	3.23

We now examine a further compound.
// CCc1nnc2n1CCN(C(=O)c1cc(Br)c[nH]1)C2 : Percent Effect value = -1.78

Attribution: ChEMBL document CHEMBL3988442
